test-name: Cytotoxicity against human Hep3B cells after 24 hrs by MTT assay in presence of doxorubicin
Assay type: functional, cell-based, Hep 3B2
result-type: EC50 (µM)
The figure you give is taken to be in µM; do not add the unit.

Just so you know, measured EC50 for CC(C)C1=Cc2ccc3c(c2C(=O)C1=O)CCCC3(C)C came out at 6.6

###

test-name: Cytotoxicity against human Hep3B cells after 24 hrs by MTT assay
Assay type: functional, cell-based, Hep 3B2
result-type: EC50 (µM)
The figure you give is taken to be in µM; do not add the unit.

Just so you know, measured EC50 for CC(C)C1=Cc2ccc3c(c2C(=O)C1=O)CCCC3(C)C came out at 14.8

###

test-name: Cytotoxicity against human PLC/PRF/5 cells after 24 hrs by MTT assay
Type: functional, cell-based
study-conditions: PLC-PRF-5, 24 h
result-type: pEC50
# pEC50: negative log10 of molar concentration; output just the value

Just so you know, measured pEC50 for CC(C)C1=Cc2ccc3c(c2C(=O)C1=O)CCCC3(C)C came out at 4.57

The values you see were collected from ChEMBL document CHEMBL3608289.
